# tested system: human melanocortin-4 receptor (human, UniProt P32245 1-332)
# Sequence (P32245 whole entry): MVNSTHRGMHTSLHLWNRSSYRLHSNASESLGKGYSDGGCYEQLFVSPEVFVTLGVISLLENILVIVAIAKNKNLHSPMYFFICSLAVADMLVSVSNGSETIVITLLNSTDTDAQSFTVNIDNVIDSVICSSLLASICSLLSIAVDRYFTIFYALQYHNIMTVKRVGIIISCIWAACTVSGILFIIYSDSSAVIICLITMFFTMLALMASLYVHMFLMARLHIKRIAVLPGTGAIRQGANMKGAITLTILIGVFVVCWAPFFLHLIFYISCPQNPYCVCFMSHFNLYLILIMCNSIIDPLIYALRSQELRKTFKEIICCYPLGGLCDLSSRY
# procedure text: cell-based or functional assay
Positions of bridges follow the written chain, without caps; N, C: chain ends. Non-standard residues stand in square brackets, D forms with d. dPhe(4-CN) = N#Cc1ccc(C[C@@H](N)C(=O)O)cc1; dPhe(3-Cl) = N[C@H](Cc1cccc(Cl)c1)C(=O)O; Orn = NCCC[C@H](N)C(=O)O
readout name: Intrinsic Activity, cAMP, 10 ng/mL Doxycycline (%)
Reply numerically in %, unit not repeated.

Param item = Ac-REQ[dPhe(3-Cl)]RW[Orn]-NH2 (lactam 2-7, also called No. 38) [Ac-Arg-cyclo(Glu-Gln-D-Phe(3-Cl)-Arg-Trp-Orn)-NH2] ; retrieve measured Intrinsic Activity, cAMP, 10 ng/mL Doxycycline. 97

Param item = Ac-REP[dPhe(4-CN)]RW[Orn]-NH2 (lactam 2-7; SMILES CC(=O)N[C@@H](CCCNC(=N)N)C(=O)N[C@H]1CCC(=O)NCCC[C@@H](C(N)=O)NC(=O)[C@H](Cc2c[nH]c3ccccc23)NC(=O)[C@H](CCCNC(=N)N)NC(=O)[C@@H](Cc2ccc(C#N)cc2)NC(=O)[C@@H]2CCCN2C1=O, also called No. 39) [Ac-Arg-cyclo(Glu-Pro-D-Phe(4-CN)-Arg-Trp-Orn)-NH2] ; retrieve measured Intrinsic Activity, cAMP, 10 ng/mL Doxycycline. 79

Param item = XDQXRWK (N-terminal Ac; D-Arg 1; D-Phe(3-Cl) 4; lactam Asp 2-Lys 7; C-terminal NH2, also called No. 80) [Ac-D-Arg-cyclo(Asp-Gln-D-Phe(3-Cl)-Arg-Trp-Lys)-NH2] ; retrieve measured Intrinsic Activity, cAMP, 10 ng/mL Doxycycline. 86
